These entries and their values trace back to ChEMBL document CHEMBL3045657.

Test system: OVCAR
Assay: Cytotoxicity against Homo sapiens (human) OVCAR cells assessed as cell growth inhibition at 1 x 10^-5 M after 48 hr by SRB assay
Format: functional
Calls of active or inactive are those of the source. The calls are words filed in the database; no cut-off is given here.

>  <smiles.str>
O=C(/C=C/c1c(Cl)cccc1Cl)c1ccc[nH]1

>  <target.entity>
OVCAR

>  <growth inhibition (GI)>
inactive

$$$$
>  <smiles.str>
COc1ccc(/C=C/C(=O)c2ccco2)cc1OC

>  <target.entity>
OVCAR

>  <growth inhibition (GI)>
inactive

$$$$
>  <smiles.str>
O=C(/C=C/c1c(Cl)cccc1Cl)c1ccco1

>  <target.entity>
OVCAR

>  <growth inhibition (GI)>
inactive

$$$$
>  <smiles.str>
COc1ccc(OC)c(/C=C/C(=O)c2ccco2)c1

>  <target.entity>
OVCAR

>  <growth inhibition (GI)>
inactive

$$$$
>  <smiles.str>
O=C(/C=C/c1ccccc1)c1ccco1

>  <target.entity>
OVCAR

>  <growth inhibition (GI)>
inactive

$$$$
>  <smiles.str>
O=C(/C=C/c1ccco1)c1ccc2ccccc2c1

>  <target.entity>
OVCAR

>  <growth inhibition (GI)>
inactive

$$$$
>  <smiles.str>
O=C(/C=C/c1cccc(Cl)c1Cl)c1ccc[nH]1

>  <target.entity>
OVCAR

>  <growth inhibition (GI)>
inactive

$$$$
>  <smiles.str>
O=C(/C=C/c1cccc([N+](=O)[O-])c1)c1ccc[nH]1

>  <target.entity>
OVCAR

>  <growth inhibition (GI)>
inactive

$$$$
